molecular target: α1 adrenoceptors; experiment: Inhibition of 3H-prazosin binding to α1 adrenoceptors in rat brain in vitro; settings: 3H-Prazosin 0.25 nM, rat brain, 25° C., 20 min; read-out: Receptor Binding; IC50 α1 3H-Praz
MEASUREMENT TYPE: pIC50
Worth noting: pIC50 values are minus log10 of concentrations stated in mol/L.

COMPOUND	ASSAY SYSTEM	pIC50
CC(C)N1CCN(CCN2CCN([C@H]3C[C@H](c4ccc(F)cc4)c4cc(Cl)ccc43)CC2)C1=O (single isomer, unassigned) [(+)-11]	α1 adrenoceptors	6.47
Fc1ccc([C@@H]2C[C@@H](N3CCNCC3)c3ccc(Cl)cc32)cc1 (relative stereo)	α1 adrenoceptors	6.08
CC(C)N1CCN(CCN2CCN([C@@H]3C[C@@H](c4ccc(F)cc4)c4cc(Cl)ccc43)CC2)C1=O (single isomer, unassigned) [(-)-11]	α1 adrenoceptors	6.68

Would you kindly share the measured pIC50 for Cc1ccc2c(c1)[C@H](c1ccc(F)cc1)C[C@H]2N1CCN(CCN2CCNC2=O)CC1 (relative stereo) ?
6.66

Would you kindly share the measured pIC50 for Fc1ccc([C@@H]2C[C@@H](N3CCN(CCN4CCCNC4=S)CC3)c3ccc(Cl)cc32)cc1 (relative stereo) [Compound 32] ?
6.77

Would you kindly share the measured pIC50 for CC(C)N1CCN(CCN2CCN([C@@H]3C[C@@H](c4ccccc4F)c4cc(Cl)ccc43)CC2)C1=O (relative stereo) ?
6.17
